FYI, the data here is from ChEMBL document CHEMBL4145617.

# Tested on: Mycobacterium intracellulare
# experiment_summary: Antimycobacterial activity against Mycobacterium intracellulare ATCC 23068 after 70 to 74 hrs by Alamar blue based CLSI method
# Format: functional
measurement_label: MIC (µg/mL)
Return type: number; implicit unit µg/mL.

Note to self: MIC of `O=C(N[C@H](CO)[C@H](O)c1ccc([N+](=O)[O-])cc1)C(Cl)Cl` with Mycobacterium intracellulare was 25

Observed MIC, Mycobacterium intracellulare, `CC(=O)O[C@H](c1ccc([N+](=O)[O-])cc1)[C@@H](CO)NC(=O)C(Cl)Cl` : 25

For the compound `CC(=O)OC[C@@H](NC(=O)C(Cl)Cl)[C@H](O)c1ccc([N+](=O)[O-])cc1` , the measured MIC on Mycobacterium intracellulare was 25

Given the compound `O=C(O[C@H](c1ccc([N+](=O)[O-])cc1)[C@@H](CO)NC(=O)C(Cl)Cl)c1ccc([N+](=O)[O-])cc1` and test system Mycobacterium intracellulare, the measured MIC is 12.5
